experimentalSystem: DNA-PK(h) (Homo sapiens)
assayInfo: Evaluation of inhibitory activity against DNA-PK (HTRF kinase assay, GST-cMyc-p53 substrate)
Format: biochemical
conditionLabel: compound concentration 0.01 μM; read-out: EXP_VALUE(% Inhibition) DNA-PK(h) 0.01 μM
Rule: inhibition at 0.01 µM under 50% gives -1, otherwise 1.

moleculeSmiles | category
C[C@H](Nc1ncnc2[nH]ccc(=O)c12)c1c(Cl)c2cccc(-c3cnc4ccccc4n3)c2c(=O)n1-c1ccccc1 | -1
C[C@H](Nc1ncnc2[nH]ccc(=O)c12)c1cc2cccc(C#N)c2c(=O)n1-c1ccccc1 | -1
C[C@H](Nc1ncnc2[nH]ccc(=O)c12)c1c(Cl)c2cccc(Nc3ccc(C(F)(F)F)cc3)c2c(=O)n1-c1ccccc1 | -1
C[C@H](Nc1ncnc2[nH]ccc(=O)c12)c1c(Cl)c2cccc(-c3ccc(-c4ccon4)cc3)c2c(=O)n1-c1ccccc1 | -1
C[C@H](Nc1ncnc2[nH]ccc(=O)c12)c1c(Cl)c2cccc(C#Cc3ccccn3)c2c(=O)n1-c1ccccc1 | -1
C[C@H](Nc1ncnc2[nH]ccc(=O)c12)c1c(Cl)c2cccc(-c3cnccn3)c2c(=O)n1-c1ccccc1 | 1
C[C@H](Nc1ncnc2[nH]ccc(=O)c12)c1c(Cl)c2cccc(-c3cnc(Cl)c4ccccc34)c2c(=O)n1-c1ccccc1 | -1
C[C@H](Nc1ncnc2[nH]ccc(=O)c12)c1c(Cl)c2cccc(-c3ccc(N(C)C)nc3)c2c(=O)n1-c1ccccc1 | 1
C[C@H](Nc1ncnc2[nH]ccc(=O)c12)c1c(Cl)c2cccc(-c3cnc(C4CCC4)nc3)c2c(=O)n1-c1ccccc1 | -1
COc1cc(-c2cccc3c(Cl)c([C@H](C)Nc4ncnc5c4c(=O)ccn5-c4ccnc(OC)c4)n(-c4ccccc4)c(=O)c23)ccn1 | -1
C[C@H](Nc1ncnc2[nH]ccc(=O)c12)c1c(Cl)c2cccc(-c3cccc4[nH]ccc34)c2c(=O)n1-c1ccccc1 | -1
C[C@H](Nc1ncnc2[nH]ccc(=O)c12)c1c(Cl)c2cccc(-c3cncc(S(C)(=O)=O)c3)c2c(=O)n1-c1ccccc1 | 1
C[C@H](Nc1ncnc2[nH]ccc(=O)c12)c1c(Cl)c2cccc(N(C)Cc3ccccc3)c2c(=O)n1-c1ccccc1 | -1
C[C@H](Nc1ncnc2[nH]ccc(=O)c12)c1c(Cl)c2cccc(-c3ccc4nccnc4c3)c2c(=O)n1-c1ccccc1 | 1
COc1cc(-c2cccc3c(Cl)c([C@H](C)Nc4ncnc5[nH]ccc(=O)c45)n(-c4ccccc4)c(=O)c23)cc(OC)c1F | 1
C[C@H](Nc1ncnc2[nH]ccc(=O)c12)c1c(Cl)c2cccc(OCc3ccccc3)c2c(=O)n1-c1ccccc1 | -1
C[C@H](Nc1ncnc2[nH]ccc(=O)c12)c1c(Cl)c2cccc(-c3ccc(C4CCC4)cc3)c2c(=O)n1-c1ccccc1 | -1

From: patent US20230072683A1
